Test: Aqueous solubility at room temperature (phase solubility, HPLC)
Format: physicochemical
Conditions: deionized water, pH 5.6, deionized H2O, room temperature; read-out: aqueous solubility
endpoint_label: solubility at 24 h (µM)

[[record]]
compound = "CCN(CC)CC.O=c1c2nc(Br)n([C@@H]3O[C@@H]4COP(=S)(S)O[C@H]4[C@H]3O)c2nc2[nH]c(-c3ccccc3)cn12 (stereo partly shown) [dithio-CN03]"
test_value = 1800


====

Test: Aqueous solubility at room temperature (phase solubility, HPLC)
Type: physicochemical
Details: deionized water, pH 5.6, deionized H2O, room temperature; corresponds to crystal modification II (trihydrate); read-out: aqueous solubility
endpoint_label: solubility at 24 h

[[record]]
compound = "CCN(CC)CC.O=c1c2nc(Br)n([C@@H]3O[C@@H]4COP(=S)(S)O[C@H]4[C@H]3O)c2nc2[nH]c(-c3ccccc3)cn12 (stereo partly shown)"
endpoint_label = "solubility at 24 h"
test_value = "1170 µg/mL"


====

Test: Aqueous solubility at room temperature (phase solubility, HPLC)
Assay type: physicochemical
Conditions: deionized water, water, thermodynamic from solid, room temperature, deionized water, 24 h equilibration; read-out: aqueous solubility, single samples 1-4 (Table S1)
endpoint_label: solubility at 24 h (µg/mL)

[[record]]
compound = "CCN(CC)CC.O=c1c2nc(Br)n([C@@H]3O[C@@H]4COP(=S)(S)O[C@H]4[C@H]3O)c2nc2[nH]c(-c3ccccc3)cn12 (stereo partly shown)"
endpoint_label = "solubility at 24 h"
test_value = 1160

